System: S. Typhi PhoP-promoter GFP reporter, fluorescence, 4 h
Assay: PhoP regulon inhibitor project modified counter assay, GFP fluorescence readout, dose response (AID 1985)
Measured IC50 of individual entries

Example cases with answers are listed next.
O=CN/N=C/c1c(O)ccc2ccccc12 = 49 µM
OC(CN1CCCCC1)Cn1c2ccccc2c2cc(Br)ccc21 (stereo not drawn) = 81.9 µM

Name the recorded IC50 for OCCNCc1cc(Br)ccc1OCc1ccc(Cl)cc1 .
121 µM

Consider the compound shown here: CN1/C(=C\C=C\C2=[N+](C)c3ccc4ccccc4c3C2(C)C)C(C)(C)c2ccccc21 What is its recorded IC50?
3.62 µM

What IC50 value was documented for this compound, N=c1n(Cc2ccc(Cl)cc2)c2ccccc2n1CC(O)COc1ccccc1 (stereo not drawn) ?
66.8 µM

Name the reported IC50 value associated with the compound O=C(Nc1ccccc1)Oc1ccc[nH]c1=O
55.8 µM

Tell me the measured IC50 of COc1cc(C(=O)N/N=C/c2ccc(OC(=O)c3cccc(C)c3)c(OC)c2)ccc1O , please.
20.9 µM

# get_value(readout='IC50', item= COc1ccc(NC2=NC3(CCCCC3)N=C(N)N2)cc1 )
141 µM
